experimental_system: human TRPM8 (Homo sapiens)
Construct: host or cells: CHO cells, stably transfected
measurement_notes: TRPM8 calcium assay (Fluo-8, FLIPR) in transfected CHO cells
Assay type: cell-based
test_context: x Menthol
measure_name: relative potency to l-menthol (menthol = 1)

{"compound": "CCCCCCCCP(=O)(C(C)CC)C(C)CC (stereo not drawn) [1-di-sec-butylphosphoryl-octane]", "experimental_system": "human TRPM8 (Homo sapiens)", "measurement": 2.9}

P: CCCCCCP(=O)(C(C)C)C(C)C [1-diisopropylphosphoryl-hexane]
Q: CCCCCCCP(=O)(C(C)C)C(C)C [1-diisopropylphosphoryl-heptane]
Prompt: Sorting by relative potency to l-menthol (menthol = 1) in descending order, would P or Q appear first? Reply briefly: the label of your chosen item.
Completion: Q

----------
experimental_system: human TRPM8 (Homo sapiens, UniProt Q7Z2W7)
Construct: host or cells: CHO cells, stably transfected
Sequence (Q7Z2W7 whole entry): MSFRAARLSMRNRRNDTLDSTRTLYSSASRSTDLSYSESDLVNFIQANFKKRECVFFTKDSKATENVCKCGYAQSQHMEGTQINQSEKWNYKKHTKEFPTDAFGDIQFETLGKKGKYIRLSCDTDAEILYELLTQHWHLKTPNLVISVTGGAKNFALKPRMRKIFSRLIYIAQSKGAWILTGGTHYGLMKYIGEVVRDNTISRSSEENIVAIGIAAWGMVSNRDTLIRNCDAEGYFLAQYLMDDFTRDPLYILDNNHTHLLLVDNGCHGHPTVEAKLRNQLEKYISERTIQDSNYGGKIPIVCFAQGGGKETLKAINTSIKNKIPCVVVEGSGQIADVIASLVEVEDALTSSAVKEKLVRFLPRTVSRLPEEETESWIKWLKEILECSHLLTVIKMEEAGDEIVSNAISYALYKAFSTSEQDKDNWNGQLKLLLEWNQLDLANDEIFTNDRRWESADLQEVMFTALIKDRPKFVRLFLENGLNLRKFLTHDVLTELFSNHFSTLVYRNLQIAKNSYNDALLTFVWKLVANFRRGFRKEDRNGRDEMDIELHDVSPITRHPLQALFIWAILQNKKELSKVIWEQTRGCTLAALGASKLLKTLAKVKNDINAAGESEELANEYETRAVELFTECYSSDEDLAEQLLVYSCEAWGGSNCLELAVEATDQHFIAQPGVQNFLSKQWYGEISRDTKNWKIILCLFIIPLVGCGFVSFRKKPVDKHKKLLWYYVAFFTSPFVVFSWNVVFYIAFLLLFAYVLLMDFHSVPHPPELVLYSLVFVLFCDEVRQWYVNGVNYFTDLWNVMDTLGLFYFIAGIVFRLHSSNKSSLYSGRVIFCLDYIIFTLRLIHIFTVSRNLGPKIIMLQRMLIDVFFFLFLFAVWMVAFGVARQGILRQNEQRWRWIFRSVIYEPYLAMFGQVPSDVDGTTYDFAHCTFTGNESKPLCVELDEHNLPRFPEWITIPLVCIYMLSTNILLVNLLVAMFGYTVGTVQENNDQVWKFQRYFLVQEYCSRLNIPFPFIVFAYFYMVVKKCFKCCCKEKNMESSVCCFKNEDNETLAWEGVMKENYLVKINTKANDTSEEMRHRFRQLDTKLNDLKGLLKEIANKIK
measurement_notes: TRPM8 calcium assay (Fluo-8, FLIPR) in transfected CHO cells
Format: cell-based
test_context: x Menthol
measure_name: relative potency to l-menthol (menthol = 1)

Use these answered entries as a reference point.
{"compound": "CCCCCCCCCP(=O)(C(C)C)C(C)C", "measurement": 4.0}
{"compound": "CCCCCP(=O)(C(C)C)C(C)C", "measurement": 0.7}
{"compound": "CCCCCCCP(=O)(C(C)CC)C(C)CC (stereo not drawn)", "measurement": 3.4}
{"compound": "CCCCCCCCP(=O)(C(C)C)C(C)C", "measurement": 5.4}

I: CCCCCCP(=O)(C(C)CC)C(C)CC (stereo not drawn)
II: CCC(C)P(=O)(CCC(C)C)C(C)CC (stereo not drawn)
III: CCCCCP(=O)(CC(C)C)CC(C)C
IV: CCCCCP(=O)(C(C)CC)C(C)CC (stereo not drawn)
V: CCCCP(=O)(C(C)CC)C(C)CC (stereo not drawn)
Prompt: Task for the reader: rank each entry by its relative potency to l-menthol (menthol = 1), from the minimum upward. Provide your answer as the labels ordered per the instruction.
Completion: III, V, II, IV, I
